molecular target: Acetylcholinesterase (Homo sapiens) (UniProt P22303); assay: Acetylcholinesterase (AChE) small molecule antagonists: enzyme-based qHTS assay (AID 1347397); conditions: AChE enzyme activity inhibition; series mostly up to 115 µM; further: nearly all actives have a fitted effect of over 55% in size
Sequence (P22303 whole entry, looked up): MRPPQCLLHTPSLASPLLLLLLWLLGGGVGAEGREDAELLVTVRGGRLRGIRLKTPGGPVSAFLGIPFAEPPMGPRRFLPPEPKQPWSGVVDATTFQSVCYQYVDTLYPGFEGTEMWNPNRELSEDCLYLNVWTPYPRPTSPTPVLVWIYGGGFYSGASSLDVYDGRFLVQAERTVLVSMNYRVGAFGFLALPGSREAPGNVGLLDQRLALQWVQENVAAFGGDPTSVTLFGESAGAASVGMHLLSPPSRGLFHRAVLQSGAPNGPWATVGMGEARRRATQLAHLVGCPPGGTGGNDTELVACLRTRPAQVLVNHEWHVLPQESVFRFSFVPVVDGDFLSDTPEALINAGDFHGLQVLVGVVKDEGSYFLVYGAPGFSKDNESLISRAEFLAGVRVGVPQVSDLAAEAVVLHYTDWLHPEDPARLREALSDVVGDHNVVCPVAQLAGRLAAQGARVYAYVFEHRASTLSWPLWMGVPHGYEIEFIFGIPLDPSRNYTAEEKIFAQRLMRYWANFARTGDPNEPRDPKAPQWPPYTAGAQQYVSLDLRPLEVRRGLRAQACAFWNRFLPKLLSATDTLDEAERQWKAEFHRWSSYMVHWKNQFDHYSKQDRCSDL
Calls of active or inactive are those of the source. The call rests on the fitted dose curve.
Tick one outcome: 1 = active, -1 = inactive

Worked examples, 5 compounds total:
## Task Returns: the outcome recorded for O=C1CCCCCCCCCCC(=O)OCCO1 in this assay.
## Result -1

## Task Which outcome was assigned to COC(=O)c1ccc(I)cc1S(=O)(=O)NC(=O)Nc1nc(C)nc(OC)n1 in this test?
## Result -1

## Task # fetch the recorded call for CO[Si](CCCNc1ccccc1)(OC)OC here
## Result -1

## Task Could you kindly confirm the outcome this assay logged for COc1cccc(O)c1O ?
## Result -1

## Task Test call for this compound, please: Clc1nc2ccccc2nc1Cl
## Result -1

More entries:
## Task Recorded call for CC(=O)Nc1cccc(N)c1 ?
## Result -1

## Task Could you please tell me the result logged for O=C(/C=C/c1ccc(O)c(O)c1)O[C@@H]1C[C@@](OC(=O)/C=C/c2ccc(O)c(O)c2)(C(=O)O)C[C@@H](O)[C@@H]1O in this assay?
## Result -1

## Task Outcome logged for CC(C)=CCC/C(C)=C/COC=O in this assay:
## Result -1

## Task Just curious, what result did CC/C=C\CCCCCCCCCCOC(C)=O get here?
## Result -1

## Task What classification did CC(C)(O)Cc1ccccc1 end up with in this test?
## Result -1

## Task In this assay, the call recorded for C/C=C(\C)C#N was what?
## Result -1

## Task Kindly provide the recorded test outcome for the following compound: [Ca+2]
## Result -1

###

biological target: Acetylcholinesterase (Homo sapiens); assay: Acetylcholinesterase (AChE) small molecule antagonists: fluorescence cell-based qHTS assay (AID 1347398); details: SH-SY5Y cells; AChE activity; series mostly up to 115 µM; further: nearly all actives have a fitted effect of over 50% in size; further: potency means the concentration at half of the fitted maximal effect
Inconclusive results are not listed. Activity calls are given as the source filed them. The call rests on the fitted dose curve.
READOUT_TYPE: Potency

In the examples that follow, each entry is paired with its recorded Potency.
## Task Give reported Potency value for CCCCCc1ccc(O)cc1
## Result inactive

## Task Please indicate Potency recorded for CCCOC(OCCC)OCCC
## Result inactive

## Task // Input: CC(=O)OCC1=C(C(=O)O)N2C(=O)[C@@H](NC(=O)Cc3cccs3)[C@H]2SC1 . Output its Potency only.
## Result inactive

## Task Query Potency for O=C(Nc1ccccc1)c1ccccc1O
## Result inactive

## Task Answer with the recorded Potency of CCCCOc1ccc(C(=O)CCN2CCCCC2)cc1 only.
## Result 12.3 µM (active)

Further cases:
## Task Annotate the compound CCN1/C(=C/C=C/c2sc3ccccc3[n+]2CC)Sc2ccccc21 with its measured Potency.
## Result 6.74 µM (active)

###

biological target: Acetylcholinesterase (Homo sapiens); test: Acetylcholinesterase (AChE) small molecule antagonists: fluorescence cell-based qHTS assay (AID 1347398); conditions: SH-SY5Y cells; AChE activity; series mostly up to 115 µM; further: nearly all actives have a fitted effect of over 50% in size
Inconclusive results are not listed. Active and inactive are the calls of the source. The call rests on the fitted dose curve.
In this exercise, the only acceptable responses are active, inactive

Consider the worked cases shown below.
## Task Test call for this molecule, please: CC(=O)OCCC(C)CC(C)(C)C (stereo not drawn)
## Result inactive

## Task Tell me the assay call for O=Cc1ccc(F)cc1 please.
## Result inactive

## Task Tell me the recorded outcome of this test for CCCCC(=O)O[C@]1(C(=O)CO)[C@H](C)C[C@H]2[C@@H]3CCC4=CC(=O)C=C[C@]4(C)[C@@]3(F)[C@@H](O)C[C@@]21C .
## Result inactive

## Task Test call for this molecule, please: CCN(CC)C(=O)/C(C#N)=C/c1cc(O)c(O)c([N+](=O)[O-])c1
## Result inactive

## Task Could you kindly confirm the outcome this assay logged for C#C[C@]1(O)CC[C@H]2[C@@H]3CCc4cc(OC5CCCC5)ccc4[C@H]3CC[C@@]21C ?
## Result inactive

Continue with the next molecule.
## Task Status in this test for CC1=C(/C=C/C(C)=C/C=C/C(C)=C\C(=O)O)C(C)(C)CCC1 ?
## Result inactive

###

target: Acetylcholinesterase (Homo sapiens) (UniProt P22303); assay: Acetylcholinesterase (AChE) small molecule antagonists: colormetric cell-based qHTS assay (AID 1347395); details: SH-SY5Y cells AChE activity, colorimetric (Ellman); series mostly up to 115 µM; further: nearly all actives have a fitted effect of over 30% in size
Results filed as inconclusive are left out. Activity calls are given as the source filed them. The call rests on the fitted dose curve.
// classify into label 1 for active, label 0 for inactive

## Task Hi, do you know how Cc1ccc2c(Br)cc(Br)c(O)c2n1 came out in this test?
## Result label 0

## Task # fetch the recorded call for CC(=O)c1cc(C)oc1C here
## Result label 0

Further cases:
## Task Could you check what this test reported for CC(C)Nc1ccc(NC(C)C)c2c1C(=O)c1ccccc1C2=O ?
## Result label 0

## Task Could you kindly confirm the outcome this assay logged for C=CC(OCC)OCC ?
## Result label 0

## Task Call for entry O=C(O)c1ccc(O)c(O)c1 :
## Result label 0

## Task Please indicate how the test categorized COC(=O)/C=C\C(=O)O .
## Result label 0

## Task Tell me the recorded outcome of this test for C/C(=N/NC(=O)c1ccncc1)C(=O)O .
## Result label 0

## Task Answer briefly: the call reported for COc1cc2nc(N(C)CCCNC(=O)C3CCCO3)nc(N)c2cc1OC (stereo not given) in this assay.
## Result label 1

## Task Tell me the recorded outcome of this test for O=C1CCCCO1 .
## Result label 0

## Task Short answer needed: outcome of this test for CC(=O)NC1(c2cccc(F)c2)CCN(CC[C@@]2(c3ccc(Cl)c(Cl)c3)CN(c3ccccc3)C(=O)CO2)CC1 ?
## Result label 0

## Task Which outcome did this test record for the compound CNC(=O)C(c1ccccc1)c1ccccc1 ?
## Result label 0

## Task Identify the outcome logged in this assay for the compound shown: CC(C)(O)C(=O)O
## Result label 0

## Task # fetch the recorded call for CCn1nc(Cc2ccccc2)cc1C1CCN(C[C@H]2C[C@H](N(C)[C@@H](C(=O)O)C(C)C)C[C@@H]2c2cccc(F)c2)CC1 here
## Result label 0

## Task In this assay, the call recorded for CCc1cccc(CC)c1NC(=O)CN(CC(=O)O)CC(=O)O was what?
## Result label 0

## Task What is the recorded call for this compound in the test? CC(COc1ccccc1)NC(C)C(O)c1ccc(O)cc1 (stereo not given)
## Result label 0

## Task GET /call?item= O=c1c2ccccc2nnn1CCl returns the recorded outcome of this test.
## Result label 0

## Task // param item: SC1CCCCC1 ; yields the recorded call
## Result label 0

## Task Assay outcome for OCC(O)c1ccccc1 (stereo not given) : what was it?
## Result label 0

## Task Test call for this compound, please: COc1ccc(-c2coc3cc(O)ccc3c2=O)cc1
## Result label 0

###

Target: Acetylcholinesterase (Homo sapiens)
Experiment: Acetylcholinesterase (AChE) small molecule antagonists: fluorescence cell-based qHTS assay (AID 1347398); further: nearly all actives have a fitted effect of over 50% in size
Conditions: SH-SY5Y cells; AChE activity; series mostly up to 115 µM
Description: National Center for Advancing Translational Sciences [NCATS] Division of Preclinical Innovation [DPI] U.S. Environmental Protection Agency [EPA] National Institutes of Environmental Health Sciences [NIEHS] National Toxicology Program [NTP] […] A homogenous cell-based assay using Amplitetrade mark Fluorimetric Acetylcholinesterase Assay Kit *Green Fluorescence* (AAT Bioquest, Sunnyvale, CA) was used to evaluate the chemicals in the Tox21 10K library that inhibit AChE activity. […]
Records with an inconclusive call do not appear. The source made the active and inactive calls. Calls follow the shape of the full dose curve.
Your response should consist of one outcome taken from active, inactive

Worked set:
## Task Called result for CCN(CC)c1ccc2c(-c3ccc(S(=O)(=O)O)cc3S(=O)(=O)[O-])c3ccc(=[N+](CC)CC)cc-3oc2c1
## Result active

## Task For CC(C)=CCC/C(C)=C/CC/C(C)=C/CCC(=O)OC/C=C(\C)CCC=C(C)C , what call appears in the results of this test?
## Result inactive

## Task Name the outcome recorded for CCN1CCCC1CNC(=O)c1cc(S(N)(=O)=O)ccc1OC (configuration not stated) in the assay.
## Result inactive

## Task Could you kindly confirm the outcome this assay logged for CCCCCCCCCC(=O)N(C)C ?
## Result inactive

## Task Recorded test outcome, item Nc1ccc(F)c([N+](=O)[O-])c1
## Result inactive

---
## Task Name the outcome recorded for CC(S)C(=O)NCC(=O)O (configuration not stated) in the assay.
## Result inactive

## Task Fill in: this test's call for C=COCC1CCC(COC=C)CC1 (configuration not stated) is ___
## Result inactive

## Task Tell me the recorded outcome of this test for CNCCS(=O)(=O)O .
## Result inactive

## Task // outcome(item) with item = CCOC(=O)/C=C(C)/C=C/C=C(C)/C=C/c1c(C)cc(OC)c(C)c1C
## Result inactive

## Task Recorded test outcome, item FC(F)(F)C(F)(F)C(F)(F)C(F)(F)C(F)(F)C(F)(F)C(F)(F)C(F)(F)Br
## Result inactive

## Task Write down the call the test reported for this molecule. Item: OCc1ccccn1
## Result inactive

## Task Tell me the assay call for CCCCCCCCCCc1ccccc1 please.
## Result inactive

## Task Assay outcome for CC(C)Nc1nc(N)nc(Cl)n1 : what was it?
## Result inactive

## Task Assay outcome for CCCCCCCCCOC(C)=O : what was it?
## Result inactive

## Task Could you please tell me the result logged for CCCCN(CCCC)C(C(N)=O)c1ccc(OC)cc1 (configuration not stated) in this assay?
## Result inactive

## Task Which outcome was entered for the molecule CC(S)C(C)S (configuration not stated) in this test?
## Result inactive

## Task What was the test verdict on COC(=O)/C=C\C(=O)O ?
## Result inactive
